# Tested on: human maximum recommended daily dose, FDA database
# test: DSSTox (FDAMDD) FDA Maximum (Recommended) Daily Dose Database
# applied conditions: TherapeuticCategory: immunomodulator; chelating agent; hits give low values
quantity measured: maximum recommended daily dose (mmol/kg-bw/day)

Enquiry: human maximum recommended daily dose, FDA database / maximum recommended daily dose (mmol/kg-bw/day) / `CCN(CC)C(=S)S` : value?
Return: 0.0584

###

# System: human maximum recommended daily dose, FDA database
# test: DSSTox (FDAMDD) FDA Maximum (Recommended) Daily Dose Database
# applied conditions: TherapeuticCategory: antiviral; antiparkinsonian; hits give low values
quantity measured: maximum recommended daily dose (mmol/kg-bw/day)

Enquiry: Value lookup for maximum recommended daily dose (mmol/kg-bw/day); key = `NC12CC3CC(CC(C3)C1)C2`
Return: 0.0441
